Values from ChEMBL document CHEMBL1201862

- Test system: HCT-116
- assay notes: NCI tumour cell line growth inhibition, 48 h
Activity calls are given as the source filed them. No stated cut-off is given here; in the data, active = GI50 up to about 1.1 µM and inactive = higher.
quantity measured: GI50

Here's what some known entries look like.
compound	test target	GI50
CC(=O)NC(CCCCNC(=O)OC(C)(C)C)C(=O)O (stereo not given)	HCT-116	> 100 µM (inactive)
CCCCCCC(CCl)c1sc(-c2csc(CCNC(=O)OC(C)(C)C)n2)nc1C(=O)OC (stereo not given)	HCT-116	15.5 µM (inactive)
CCCCCCCCCCCCCCCCNc1nc(=O)n(C2CC(O)C(CO)O2)cc1F (stereo not given)	HCT-116	8.26 µM (inactive)

Prompt: Given the entry "COc1ccc(NC(=S)NNC(=O)c2nsc3ccccc23)cc1" , report its measured GI50.
Response: 28.4 µM (inactive)

Prompt: Looking for the measured GI50 of "O/N=C(\C(=N/O)Nc1ccc(-c2ccc(NC(=N/O)/C(=N\O)c3ccccc3)cc2)cc1)c1ccccc1" , can you help?
Response: 18.7 µM (inactive)

====

Items are presented alongside their recorded GI50.
- Test system: SK-MEL-2
- assay notes: NCI tumour cell line growth inhibition, 48 h
The source made the active and inactive calls. Cut-off read from the data, not from the text of the source: active = GI50 up to about 1.1 µM and inactive = higher.

// known answers, use as guide
smiles string	test target	assay result
CC(=O)CC(=O)CCCC(=O)Nc1ccc(Cl)cc1C	SK-MEL-2	> 100 µM (inactive)
[O-][n+]1onc2c3nn(-c4ccccc4)nc3ccc21	SK-MEL-2	> 100 µM (inactive)

The record that follows has no GI50 shown yet.
Prompt: Which GI50 value belongs to "CN(C)C(=O)/N=C1\SC(=N\c2ccccc2)/C(=N/c2ccccc2)N1c1ccc([N+](=O)[O-])cc1" ?
Response: > 100 µM (inactive)

====

- System: BT-549
- assay notes: NCI tumour cell line growth inhibition, 48 h
Calls of active or inactive are those of the source. Cut-off read from the data, not from the text of the source: active = GI50 up to about 1.1 µM and inactive = higher.
Listed molecules paired with reported GI50

molecule	assay result
CO/C(=N\N=C\c1ccc(Cl)cc1Cl)c1ccncc1	> 10 µM (inactive)
CCc1nc(N)nc(N)c1-c1ccc(Cc2ccccc2)c([N+](=O)[O-])c1	13 µM (inactive)
Oc1c(Br)cc(/C=C/c2cccc(/C=C/c3cc(Br)c(O)c(Br)c3)n2)cc1Br	26.1 µM (inactive)
COC(=O)[C@@H]1C=C[C@H](OC2OC(COC(C)=O)C(OC(C)=O)C(OC(C)=O)C2OC(C)=O)n2c(=O)c3ccccc3c(=O)n21 (some centres not stated)	4.8 µM (inactive)
CCC(=O)n1c(=O)n(-c2ccc([N+](=O)[O-])cc2)c(=O)n1C(=O)CC	> 100 µM (inactive)
COc1ccc(-n2sc3ncc(-c4ccccc4)cc3c2=O)cc1	94 µM (inactive)

For the next question, use this molecule.
Prompt: Recorded GI50 of "CCc1c(O)nc(Nc2nc3ccccc3[nH]2)[nH]c1=O" , please.
Response: > 100 µM (inactive)

====

- Tested on: SF-295
- assay notes: NCI tumour cell line growth inhibition, 48 h
Active and inactive are the calls of the source. No stated cut-off is given here; in the data, active = GI50 up to about 1.1 µM and inactive = higher.
quantity measured: GI50

See these solved cases before continuing.
compound	assay result
c1ccc(Nc2nn3c(CCCCCCCCc4nnc5sc(Nc6ccccc6)nn45)nnc3s2)cc1	24.4 µM (inactive)
COC(=O)C1=C([C@H]2COC(C)(C)O2)[C@H]2C[C@@H]1[C@@H]1OC(C)(C)O[C@@H]12	> 100 µM (inactive)
COc1ccc(-n2sc3ncc(-c4ccccc4)cc3c2=O)cc1	> 100 µM (inactive)
NC1=NC(=O)C(CC(=O)Nc2ccc([N+](=O)[O-])cc2[N+](=O)[O-])S1 (centres undefined)	> 100 µM (inactive)
Nc1cccc2cc(Cl)cnc12	> 100 µM (inactive)

Prompt: Given the entry "Cc1ccc(-n2cc(-c3ccc(Cl)cc3)c3c(NNC(=S)NCc4ccccc4)ncnc32)cc1" , what GI50 was observed with SF-295?
Response: 6.76 µM (inactive)

Prompt: GET /values?readout=GI50&system=SF-295&item= Cc1ccc(S(=O)(=O)NC(CCC(=O)NN)C(=O)NN)cc1 (centres undefined)
Response: > 100 µM (inactive)

Prompt: Form field: GI50 recorded for "Nc1nc(-c2ccccc2)c(CC(=O)O)s1" with SF-295 (enter value)
Response: > 100 µM (inactive)

Prompt: Please tell me: GI50 of "Brc1ccc(/N=C/C=C(\Nc2ccc(Br)cc2)C23CC4CC(CC(C4)C2)C3)cc1" , system SF-295?
Response: 10 µM (inactive)

Prompt: Give the reported GI50 for "O=NN(CCCl)C(=O)Nc1ccc(Cl)c(Cl)c1" (system: SF-295).
Response: 48.5 µM (inactive)
